Reference for the values: paper PMC8813930

- EXPERIMENTAL TARGET: BLMCR (Homo sapiens, UniProt P54132 642-1290)
- Sequence (P54132 642-1290): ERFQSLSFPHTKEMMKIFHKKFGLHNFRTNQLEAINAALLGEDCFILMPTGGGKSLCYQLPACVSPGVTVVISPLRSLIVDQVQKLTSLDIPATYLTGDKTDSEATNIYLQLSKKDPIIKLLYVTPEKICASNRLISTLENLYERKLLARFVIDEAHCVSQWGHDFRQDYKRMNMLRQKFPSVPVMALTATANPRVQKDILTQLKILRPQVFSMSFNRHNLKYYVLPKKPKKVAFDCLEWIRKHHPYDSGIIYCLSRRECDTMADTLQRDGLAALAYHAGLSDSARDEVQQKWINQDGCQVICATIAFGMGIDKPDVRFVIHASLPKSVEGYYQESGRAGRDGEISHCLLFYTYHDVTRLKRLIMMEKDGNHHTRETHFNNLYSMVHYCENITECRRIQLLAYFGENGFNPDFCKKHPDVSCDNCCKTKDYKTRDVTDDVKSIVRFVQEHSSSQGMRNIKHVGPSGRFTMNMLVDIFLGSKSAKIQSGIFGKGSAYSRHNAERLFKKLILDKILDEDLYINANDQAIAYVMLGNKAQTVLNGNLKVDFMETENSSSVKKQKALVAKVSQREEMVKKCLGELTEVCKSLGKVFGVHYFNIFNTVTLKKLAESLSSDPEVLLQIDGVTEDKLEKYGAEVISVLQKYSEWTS
- TEST PROTOCOL: competition fluorescence anisotropy; vs ss54-FLU; 5 mM MgCl2; 50 mM Tris-HCl pH 7.5, 50 mM NaCl, 1 mM DTT, 5 mM MgCl2, 50 µg/mL BSA, 25 °C; 10 nM labeled DNA in direct titrations
- CONDITION LABEL: protein: recombinant; label: 5'-Cy3 on D3; 20 bp duplex, 3' overhang 21 nt on D3
pKd: −log10 of the molar value.
QUANTITY NAME: pKd

>>> observed_measurement("3T (Cy3) (dsDNA) DNA 1: TAAGAGCAAGATGTTCTATAAAAGATGTCCTAGCAAGGCAC DNA 2: TATAGAACATCTTGCTCTTA")
7.62
